Entry source: patent US20070203215A1

Test system: MES-SA
Assay Procedure: Cell proliferation assay
Type: cell-based
Assay Setup: Homo sapiens; Uterine carcinoma MES-SA, P-gp Neg; read-out: Formula 2 compound IC50 (inhibition of growth)
Procedure: Cell proliferation IC50s and MDR reversal EC50s were determined from 3-day dose-response curves carried out in triplicate in 96-well plates essentially as described by Monks et al. (J. Natl. Cancer Inst., 83:757-66, 1991). […] After a 2 h incubation for non-adherent cells and overnight incubation for adherent cells, the initial cell density was determined by fluorescence readout of Alamar Blue metabolism. […] Final cell density was determined with Alamar Blue. […]
Endpoint Label: pIC50
Answers are plain numbers, as −log10 of the molar value.

### Prompt What pIC50 appears in the records for this compound with MES-SA? CCOC/C=C/c1ccc(-c2nc(-c3ccc(NC(C)C)cc3)c(-c3ccc(NC(C)C)cc3)[nH]2)cc1 [Formula 2 compound]
### Response 4.29
